# Average Max MFI annotations
Target: T1, human nectin-4 on cells (human, UniProt Q96NY8 32-510)
T1 construct: also called Nectin-4 receptor
T1 sequence: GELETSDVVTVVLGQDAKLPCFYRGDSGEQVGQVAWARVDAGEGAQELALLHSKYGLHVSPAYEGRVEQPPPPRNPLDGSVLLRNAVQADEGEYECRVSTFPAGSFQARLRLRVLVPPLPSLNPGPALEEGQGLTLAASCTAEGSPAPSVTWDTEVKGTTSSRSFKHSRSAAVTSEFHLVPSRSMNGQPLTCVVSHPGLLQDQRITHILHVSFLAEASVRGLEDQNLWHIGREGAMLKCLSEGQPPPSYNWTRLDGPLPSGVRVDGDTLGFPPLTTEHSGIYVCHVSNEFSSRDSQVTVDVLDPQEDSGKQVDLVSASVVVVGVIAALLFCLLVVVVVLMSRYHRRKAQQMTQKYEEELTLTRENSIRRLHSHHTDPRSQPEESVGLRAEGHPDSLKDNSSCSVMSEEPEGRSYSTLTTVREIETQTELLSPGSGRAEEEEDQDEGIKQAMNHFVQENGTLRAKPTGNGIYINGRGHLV
Experiment: flow cytometry, NCI-H1781 cells (low endogenous nectin-4)

# Binder, Units Of Measure, Average Max MFI
rows = [
    ("Ab3 (antibody, human IgG1, kappa, L234A L235A, V domains shown, Unconjugated antibody; also called Antibody 3; nectin-4 antibody Ab3) VH: EVQLVESGGGLVKPGGSLRLSCAASGFNLNHYNMNWVRQAPGKGLEWVSSVSSGGGFRYYADSVRGRFTISRDNAKNSLYLQMNSLRAEDTAVYYCARGAVFHDAFDIWGQGTLVTVSS VL: DIQLTQSPSFLSASVGDRVTITCRASQDISSYLAWYQQKPGKAPKLLIYVASTLQSGVPSRFSGSGSGTEFTLTISSLQPEDFATYYCQQINSYPFTFGQGTKVEIKR", "MFI", 96000),
    ("Ab4 (antibody, human IgG1, kappa, L234A L235A, V domains shown, Unconjugated antibody; also called Antibody 4) VH: QVQLQESGPGLVKPSETLSLTCTVSGGSISGYYWSWIRQPPGKGLEWIGYIYYSGSTNYNPSLKSRVTISVDTSKNQFSLKLSSVTAADTAVYYCARLGIFFDAFDIWGQGTLVTVSS VL: DIQLTQSPSFLSASVGDRVTITCRASQGISSYLAWYQQKPGKAPKLLIYAASTLQSGVPSRFSGSGSGTEFTLTISSLQPEDFATYYCQQFNSYPWTFGQGTKVEIKR", "MFI", 87000),
    ("Ab7 (antibody, human IgG1, lambda, L234A L235A, V domains shown, Unconjugated antibody; also called Antibody 7; nectin-4 antibody Ab7) VH: QVQLVQSGAEVKKPGASVKVSCKASGYTFTNYYMHWVRQAPGQGLEWMGIINPSSGSASYAQKFQGRVTMTRDTSTSTVYMELSSLRSEDTAVYYCAREGVGRDILQAFDIWGQGTLVTVSS VL: QSVLTQPPSVSEAPRQRVTISCSGSSSNIGNNAVNWYQQLPGKAPKLLIYYDDLLPSGVSDRFSGSKSGTSASLAISGLQSEDEADYYCAAWDDSLNGHVFGGGTKLTVLG", "MFI", 87000),
    ("Ab1a (antibody, human IgG1, kappa, L234A L235A, V domains shown, Unconjugated antibody; also called nectin-4 antibody Ab1a) VH: QVQLVQSGAQVKKPGASVKVSCKASGYTFTGYYIHWVRQAPGQGLEWMGWINPNSGGTNYAQKFQGRVTMTRDTSISTAYMELSRLRSDDTAVYFCAREDWDFDYWGQGTLVTVSS VL: EIVLTQSPGTLSLSPGERATLSCRTSQSVSSSYLAWYQQKPGQAPRLLIYGASNRATDIPDRFSGSGSGTDFTLTINRLEPEDFAVYYCQQYGSSPITFGQGTRLEIKR", "MFI", 77000),
    ("Ab5 (antibody, human IgG1, kappa, L234A L235A, V domains shown, Unconjugated antibody; also called Antibody 5; nectin-4 antibody Ab5) VH: QVQLVQSGAEVKKPGASVKVSCKASGYTFTSYYVHWVRQAPGQGLEWMGIINPSIISTSYAQKFQARVTMTRDTSTSTVYMELSSLRSEDTAVYYCARGLNFDAFDIWGQGTLVTVSS VL: DIQLTQSPSFLSASVGDRVTITCRASQGISSYLAWYQQKPGKAPKLLIYAASTLQSGVPSRFSGSGSGTEFTLTISSLQPEDFATYYCQQLNNYPFTFGQGTKVEIKR", "MFI", 93000),
]
